Tested on: RXF-631 renal
Assay: NCI tumour cell line growth inhibition, 48 h
reportedMetric: TGI (µM)

> print(dat)
                                   molecule  relationoperator  measuredvalue
1  Cn1cnnc1Sc1c([N+](=O)[O-])nc(-c2ccc([N+](=O)[O-])cc2)n1C                 =           32.8
2  O=c1cc(-c2ccccc2)oc2cc(OCCCCCCCCCCOc3ccc4c(=O)cc(-c5ccccc5)oc4c3)ccc12                 >            100
3  O=C(Nc1ccccc1)N1C(c2ccccc2)=N[C@@H](c2ccccc2)[C@@H]1c1ccccc1                 =             79
4  COC(=O)C1=C(O)c2cc(OC)c(OC)c(OC)c2C(c2ccc3c(c2)OCO3)[C@@H]1C(=O)OC (stereo partly specified)                 >            100
5  CN(C)C(=S)/N=c1\ssc(=Nc2ccccc2)n1-c1ccccc1                 >            100
6  O=S1(=O)CCC2=CC(C(F)(F)F)=CC(C(F)(F)F)=CN21                 =           3.89
